B1: Cytosolic beta-glucosidase, O61594 (parent)
chain: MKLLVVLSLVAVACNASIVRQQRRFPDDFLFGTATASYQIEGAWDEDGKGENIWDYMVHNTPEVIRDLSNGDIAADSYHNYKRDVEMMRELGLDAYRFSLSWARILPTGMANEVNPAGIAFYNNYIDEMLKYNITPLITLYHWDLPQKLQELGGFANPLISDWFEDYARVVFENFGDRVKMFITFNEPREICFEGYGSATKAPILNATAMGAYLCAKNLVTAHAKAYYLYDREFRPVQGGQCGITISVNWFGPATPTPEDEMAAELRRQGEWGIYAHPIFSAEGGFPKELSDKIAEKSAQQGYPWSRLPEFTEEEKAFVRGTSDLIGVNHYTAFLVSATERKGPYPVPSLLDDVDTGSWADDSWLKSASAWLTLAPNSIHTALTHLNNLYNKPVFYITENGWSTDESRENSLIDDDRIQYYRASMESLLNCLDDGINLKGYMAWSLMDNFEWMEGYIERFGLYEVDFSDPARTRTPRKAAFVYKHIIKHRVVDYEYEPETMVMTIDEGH

- Variants of: B1
- recordedConditions: Spodoptera frugiperda; pH 6; Thermal; CD; Potassium phosphate 10mM; transition: 2; structure 5CG0; whole UniProt chain shown
assayReadout: change of melting temperature, mutant - wild type (higher = more stable) (°C)

mut | recordedNumber
M262F | -0.3
E265A | -1.1
K366A | -4.5
L335A | -7.5
N249A | -7.5
Y420A | -9
L350A | -2.5
F334A | -3.1
V336F | -16

Sourced from FireProtDB (doi:10.1111/febs.13659)
